# SYSTEM NAME: T1, hVEGF-A (8-109) (human, UniProt P15692 214-315)
# T1 sequence (looked up): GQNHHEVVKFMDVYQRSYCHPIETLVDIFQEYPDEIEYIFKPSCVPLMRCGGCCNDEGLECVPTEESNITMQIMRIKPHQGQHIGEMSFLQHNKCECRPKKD
# ASSAY INFO: spot phage ELISA
ASSAY ENDPOINT: ELISA

- BINDER: "GCETDWYPHQIDCKQDSDCLAGCVCGPNGFCG (designed binder) [VEGF_CKP1]"
  VAL: 0.9
- BINDER: "GCVTPWKPHWINCKQDSDCLAGCVCGPNGFCG (designed binder) [VEGF_CKP13]"
  VAL: 3.5
- BINDER: "GCKKWQWWYMCKQDSDCLAGCVCYPWTECG (designed binder) [VEGF_CKP4]"
  VAL: 2.6
- BINDER: "GCNIMLPFWGCGYDLQCLAGCVCQYYQSCG (designed binder) [VEGF_CKP9.54.87]"
  VAL: 2.4
- BINDER: "GCDVMQPYWGCEMDFDCLAGCVCHWYNSCG (designed binder, also called L2.9.63.44) [VEGF_CKP9.63.44]"
  VAL: 1.7
- BINDER: "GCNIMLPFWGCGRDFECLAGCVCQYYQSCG (designed binder) [VEGF_CKP9.54.90]"
  VAL: 2.3
- BINDER: "GCNIMLPFWGCNRDFLCLAGCVCQYYQSCG (designed binder) [VEGF_CKP9.54.48]"
  VAL: 2.5
- BINDER: "GCDVMQPYWGCGENFLCLAGCVCHWYNSCG (designed binder, also called L2.9.63.1) [VEGF_CKP9.63.1]"
  VAL: 2
- BINDER: "GCTTPWPPHEIMCKQDSDCLAGCVCGPNGFCG (designed binder) [VEGF_CKP12]"
  VAL: 3.5
- BINDER: "GCNIMLPFWGCGWSMDCLAGCVCQYYQSCG (designed binder) [VEGF_CKP9.54.76]"
  VAL: 2.7
- BINDER: "GCHMMYDYCKQDSDCLAGCVCEMYDACG (designed binder) [VEGF_CKP3]"
  VAL: 3.1
- BINDER: "GCNIMLPFWGCGVDYLCLAGCVCQYYQSCG (designed binder) [VEGF_CKP9.54.16]"
  VAL: 2.4
- BINDER: "GCNIMLPFWGCGTNFLCLAGCVCQYYQSCG (designed binder) [VEGF_CKP9.54.31]"
  VAL: 2.3
- BINDER: "GCNIMLPFWGCGPDLQCLAGCVCQYYQSCG (designed binder) [VEGF_CKP9.54.59]"
  VAL: 2.3
- BINDER: "GCRTPWEPHDITCKQDSDCLAGCVCGPNGFCG (designed binder) [VEGF_CKP11]"
  VAL: 4.1
- BINDER: "GCNIMLPFWGCQADYACLAGCVCQYYQSCG (designed binder) [VEGF_CKP9.54.14]"
  VAL: 2.5
